# measured-on: MARK4 (Homo sapiens, UniProt Q96L34)
# Construct: lines 1-140) and Reaction Biology
# Sequence (Q96L34 whole entry): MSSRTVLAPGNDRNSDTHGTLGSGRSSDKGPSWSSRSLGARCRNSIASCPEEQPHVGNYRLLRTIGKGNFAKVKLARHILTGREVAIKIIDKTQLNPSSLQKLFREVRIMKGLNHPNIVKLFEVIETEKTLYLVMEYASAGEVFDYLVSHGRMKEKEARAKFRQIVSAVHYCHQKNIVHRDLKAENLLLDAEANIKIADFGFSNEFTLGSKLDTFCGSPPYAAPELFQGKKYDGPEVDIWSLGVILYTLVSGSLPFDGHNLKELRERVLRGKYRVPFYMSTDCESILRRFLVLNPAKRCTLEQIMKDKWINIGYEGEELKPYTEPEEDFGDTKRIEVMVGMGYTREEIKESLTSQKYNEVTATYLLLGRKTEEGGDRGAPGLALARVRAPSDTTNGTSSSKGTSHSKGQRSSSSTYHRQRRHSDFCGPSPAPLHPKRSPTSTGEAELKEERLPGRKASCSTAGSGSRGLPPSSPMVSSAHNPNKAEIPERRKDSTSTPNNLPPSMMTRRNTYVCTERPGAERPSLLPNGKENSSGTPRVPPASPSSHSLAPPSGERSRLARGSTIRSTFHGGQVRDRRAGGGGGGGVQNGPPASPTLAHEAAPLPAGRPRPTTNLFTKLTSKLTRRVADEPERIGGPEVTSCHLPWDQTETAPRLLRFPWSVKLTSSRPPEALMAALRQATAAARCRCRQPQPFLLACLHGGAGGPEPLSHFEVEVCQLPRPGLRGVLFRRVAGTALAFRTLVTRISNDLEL
# protocol-description: Dundee kinase panel
# Assay type: biochemical
# condition-context: read-out: residual activity
Give measured remaining activity at 1 µM for each item. Keep answers brief.
Numbers only, in %.

Some solved entries appear below for comparison.
compound-structure-string: COCCOc1ccc(-c2cn(-c3ccccc3)c3nc[nH]c(=O)c23)cc1
unit-abbreviation: %
remaining activity at 1 µM: 99
--
compound-structure-string: O=C1Nc2ccc(I)cc2/C1=C/c1cc(Br)c(O)c(Br)c1
unit-abbreviation: %
remaining activity at 1 µM: 50
--
compound-structure-string: O=C1Cc2c([nH]c3ccc(Br)cc23)-c2ccccc2N1
unit-abbreviation: %
remaining activity at 1 µM: 39

Let us examine a further case.
Item: `Oc1ncnc2c1c(-c1ccccc1)cn2-c1ccccc1` | remaining activity at 1 µM: 96
